target: IgG receptor FcRn large subunit p51 (Homo sapiens); test: Inhibition of human IgG binding to soluble human FcRn by ELISA
Peptide text beside a SMILES is read from it.
# pIC50 annotations
The quantity pIC50 is defined as the negative base-10 logarithm of the molar concentration.

C[C@H](NC(=O)CNC(=O)CNC(=O)[C@H](Cc1ccccc1)NC(=O)[C@H](Cc1cnc[nH]1)NC(=O)CNC(=O)[C@@H](NC(=O)[C@H](CS)NC(=O)[C@H](Cc1ccccc1)NC(=O)[C@H](CCCN=C(N)N)NC(=O)[C@@H](N)CCC(N)=O)[C@@H](C)O)C(=O)N[C@@H](Cc1ccc(O)cc1)C(=O)N1CCC[C@H]1C(=O)N[C@@H](CS)C(=O)N[C@@H](CC(N)=O)C(=O)NCC(=O)N1CCC[C@H]1C(=O)O (H-QRFCTGHFGGAYPCNGP-OH) = 3.97

Request: pIC50, test system IgG receptor FcRn large subunit p51 (Homo sapiens), entry `CC(C)C[C@H](NC(=O)CNC(=O)CNC(=O)[C@H](Cc1ccccc1)NC(=O)[C@H](Cc1cnc[nH]1)NC(=O)CNC(=O)[C@@H](NC(=O)[C@H](CCCN)NC(=O)[C@H](Cc1ccccc1)NC(=O)[C@H](CCCNC(=N)N)NC(=O)[C@@H](N)CCC(N)=O)[C@@H](C)O)C(=O)N[C@@H](Cc1ccc(O)cc1)C(=O)N1CCC[C@H]1C(=O)N[C@@H](CC(=O)O)C(=O)N[C@@H](CC(N)=O)C(=O)NCC(=O)N1CCC[C@H]1C(=O)O`
3.92

* * *

biological target: IgG receptor FcRn large subunit p51 (Homo sapiens, UniProt P55899); assay: Binding affinity to human FcRn at pH 6 by surface plasmon resonance assay
Sequence (P55899 whole entry): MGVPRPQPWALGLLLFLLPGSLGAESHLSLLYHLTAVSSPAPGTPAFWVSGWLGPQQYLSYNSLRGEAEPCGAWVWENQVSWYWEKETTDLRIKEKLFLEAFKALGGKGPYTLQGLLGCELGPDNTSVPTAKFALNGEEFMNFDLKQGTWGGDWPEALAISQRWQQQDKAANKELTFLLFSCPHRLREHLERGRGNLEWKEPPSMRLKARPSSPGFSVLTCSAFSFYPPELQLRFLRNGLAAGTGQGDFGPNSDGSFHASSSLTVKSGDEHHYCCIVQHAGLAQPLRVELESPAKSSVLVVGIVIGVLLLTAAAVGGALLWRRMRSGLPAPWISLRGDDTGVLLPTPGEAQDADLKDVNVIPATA
RECORDED_METRIC: Kd (µM)
Respond numerically; units are µM and should not be typed.

// lookup Kd for `CC(C)C[C@@H]1NC(=O)CNC(=O)CNC(=O)[C@H](Cc2ccccc2)NC(=O)[C@H](Cc2cnc[nH]2)NC(=O)CNC(=O)[C@H]([C@@H](C)O)NC(=O)[C@@H](NC(=O)[C@H](Cc2ccccc2)NC(=O)[C@H](CCCN=C(N)N)NC(=O)[C@@H](N)CCC(N)=O)CSSC[C@@H](C(=O)N[C@@H](CC(N)=O)C(=O)NCC(=O)N2CCC[C@H]2C(=O)O)NC(=O)[C@@H]2CCCN2C(=O)[C@H](Cc2ccc(O)cc2)NC1=O`
5.7

* * *

# pKd annotations
target: IgG receptor FcRn large subunit p51 (Homo sapiens); experiment: Binding affinity to human FcRn at pH 6 by surface plasmon resonance assay
The quantity pKd is defined as the negative base-10 logarithm of the molar concentration.

CC(C)C[C@H](NC(=O)CNC(=O)CNC(=O)[C@H](Cc1c(F)c(F)c(F)c(F)c1F)NC(=O)[C@H](Cc1cnc[nH]1)NC(=O)CNC(=O)[C@@H](NC(=O)[C@@H](NC(=O)[C@H](Cc1ccccc1)NC(=O)[C@H](CCCN=C(N)N)NC(=O)[C@@H](N)CCC(N)=O)C(C)(C)S)[C@@H](C)O)C(=O)N[C@@H](Cc1ccc(O)cc1)C(=O)N1CCC[C@H]1C(=O)N[C@@H](CS)C(=O)N[C@@H](CC(N)=O)C(=O)NCC(=O)N1CCC[C@H]1C(=O)O = 4.15

// next entry
// lookup pKd for `CC(C)C[C@H](NC(=O)CNC(=O)[C@@H](C)NC(=O)[C@H](Cc1ccccc1)NC(=O)[C@H](Cc1cnc[nH]1)NC(=O)CNC(=O)[C@@H](NC(=O)[C@@H](NC(=O)[C@H](Cc1ccccc1)NC(=O)[C@H](CCCNC(=N)N)NC(=O)[C@@H](N)CCC(N)=O)C(C)(C)S)[C@@H](C)O)C(=O)N[C@@H](Cc1ccc(O)cc1)C(=O)N1CCC[C@H]1C(=O)N[C@@H](CS)C(=O)N[C@@H](CC(N)=O)C(=O)NCC(=O)N1CCC[C@H]1C(=O)O`
6.31

* * *

target: IgG receptor FcRn large subunit p51 (Homo sapiens, UniProt P55899); experiment: Inhibition of human IgG binding to soluble human FcRn by ELISA
# pIC50 annotations
The quantity pIC50 is defined as the negative base-10 logarithm of the molar concentration.

These solved cases illustrate the format of a correct answer.
CC(C)C[C@@H](C(=O)N[C@@H](Cc1ccc(O)cc1)C(=O)N1CCC[C@H]1C(=O)N[C@@H](CS)C(=O)O)N(C)C(=O)CN(C)C(=O)CNC(=O)[C@H](Cc1ccccc1)NC(=O)[C@H](Cc1cnc[nH]1)NC(=O)CNC(=O)[C@@H](NC(=O)[C@@H](NC(=O)[C@H](Cc1ccccc1)NC(=O)[C@@H](N)CCCNC(=N)N)C(C)(C)S)[C@@H](C)O = 6.24
CC(C)C[C@H](NC(=O)CNC(=O)CNC(=O)[C@H](Cc1ccccc1)NC(=O)[C@H](Cc1cnc[nH]1)NC(=O)CNC(=O)[C@@H](NC(=O)[C@@H](NC(=O)[C@H](Cc1ccccc1)NC(=O)[C@H](CCCN=C(N)N)NC(=O)[C@@H](N)CCC(N)=O)C(C)(C)S)[C@@H](C)O)C(=O)N[C@@H](Cc1ccc(F)cc1)C(=O)N1CCC[C@H]1C(=O)N[C@@H](CS)C(=O)N[C@@H](CC(N)=O)C(=O)NCC(=O)N1CCC[C@H]1C(=O)O = 4.59

// next entry
// lookup pIC50 for `CC(C)C[C@H](NC(=O)CNC(=O)CNC(=O)[C@H](Cc1ccccc1)NC(=O)[C@H](Cc1cnc[nH]1)NC(=O)CNC(=O)[C@@H](NC(=O)[C@@H](NC(=O)[C@H](Cc1ccccc1)NC(=O)[C@H](CCCNC(=N)N)NC(=O)[C@@H](N)CCC(N)=O)C(C)(C)S)[C@@H](C)O)C(=O)N[C@@H](Cc1ccc(O)cc1)C(=O)N1CCC[C@H]1C(=O)N[C@@H](CS)C(=O)N[C@@H](CC(N)=O)C(=O)NCC(=O)N1CCC[C@H]1C(=O)O`
5.70

* * *

biological target: IgG receptor FcRn large subunit p51 (Homo sapiens); test: Inhibition of human IgG binding to soluble human FcRn by ELISA
RECORDED_METRIC: pIC50
The quantity pIC50 is defined as the negative base-10 logarithm of the molar concentration.

These solved cases illustrate the format of a correct answer.
CC(C)C[C@H](NC(=O)[C@H]1CCCN1C(=O)[C@H]1CCCN1C(=O)[C@H](Cc1ccccc1)NC(=O)[C@H](Cc1cnc[nH]1)NC(=O)CNC(=O)[C@@H](NC(=O)[C@@H](NC(=O)[C@H](Cc1ccccc1)NC(=O)[C@H](CCCNC(=N)N)NC(=O)[C@@H](N)CCC(N)=O)C(C)(C)S)[C@@H](C)O)C(=O)N[C@@H](Cc1ccc(O)cc1)C(=O)N1CCC[C@H]1C(=O)N[C@@H](CS)C(=O)N[C@@H](CC(N)=O)C(=O)NCC(=O)N1CCC[C@H]1C(=O)O = 4.68
C[C@@H](O)[C@H](NC(=O)[C@@H](NC(=O)[C@H](Cc1ccccc1)NC(=O)[C@H](CCCN=C(N)N)NC(=O)[C@@H](N)CCC(N)=O)C(C)(C)S)C(=O)NCC(=O)N[C@@H](Cc1cnc[nH]1)C(=O)N[C@@H](Cc1ccccc1)C(=O)N[C@H](Cc1ccccc1)C(=O)NCC(=O)N1CCC[C@H]1C(=O)N[C@@H](Cc1ccc(O)cc1)C(=O)N1CCC[C@H]1C(=O)N[C@@H](CS)C(=O)N[C@@H](CC(N)=O)C(=O)NCC(=O)N1CCC[C@H]1C(=O)O = 4.41
CC(C)C[C@H](NC(=O)CNC(=O)CNC(=O)[C@H](Cc1ccccc1)NC(=O)[C@H](Cc1cnc[nH]1)NC(=O)CNC(=O)[C@@H](NC(=O)[C@H](CS)NC(=O)[C@H](Cc1ccccc1)NC(=O)[C@H](CCCN=C(N)N)NC(=O)[C@@H](N)CCC(N)=O)[C@@H](C)O)C(=O)N[C@@H](Cc1ccc(O)cc1)C(=O)N1CCC[C@H]1C(=O)N[C@H](CCS)C(=O)N[C@@H](CC(N)=O)C(=O)NCC(=O)N1CCC[C@H]1C(=O)O = 4.68
CC(C)C[C@@H](C(=O)N[C@@H](Cc1ccc(O)cc1)C(=O)N1CCC[C@H]1C(=O)N[C@@H](CS)C(=O)O)N(C)C(=O)CN(C)C(=O)CNC(=O)[C@H](Cc1ccccc1)NC(=O)[C@H](Cc1ccsc1)NC(=O)CNC(=O)[C@@H](NC(=O)[C@@H](NC(=O)[C@H](Cc1ccccc1)NC(=O)[C@@H](N)CCCN=C(N)N)C(C)(C)S)[C@@H](C)O = 4.35
CC(C)C[C@H](NC(=O)CNC(=O)[C@@H](Cc1cnc[nH]1)NC(=O)[C@H](Cc1ccccc1)NC(=O)[C@H](Cc1cnc[nH]1)NC(=O)CNC(=O)[C@@H](NC(=O)[C@@H](NC(=O)[C@H](Cc1ccccc1)NC(=O)[C@H](CCCNC(=N)N)NC(=O)[C@@H](N)CCC(N)=O)C(C)(C)S)[C@@H](C)O)C(=O)N[C@@H](Cc1ccc(O)cc1)C(=O)N1CCC[C@H]1C(=O)N[C@@H](CS)C(=O)N[C@@H](CC(N)=O)C(=O)NCC(=O)N1CCC[C@H]1C(=O)O = 5.44

// lookup pIC50 for `Cc1ccccc1C[C@H](NC(=O)[C@H](Cc1cnc[nH]1)NC(=O)CNC(=O)[C@@H](NC(=O)[C@@H](NC(=O)[C@H](Cc1ccccc1)NC(=O)[C@H](CCCNC(=N)N)NC(=O)[C@@H](N)CCC(N)=O)C(C)(C)S)[C@@H](C)O)C(=O)NCC(=O)NCC(=O)N[C@@H](CC(C)C)C(=O)N[C@@H](Cc1ccc(O)cc1)C(=O)N1CCC[C@H]1C(=O)N[C@@H](CS)C(=O)N[C@@H](CC(N)=O)C(=O)NCC(=O)N1CCC[C@H]1C(=O)O`
6.00

// lookup pIC50 for `COc1ccc(C[C@H](NC(=O)[C@H](Cc2cnc[nH]2)NC(=O)CNC(=O)[C@@H](NC(=O)[C@@H](NC(=O)[C@H](Cc2ccccc2)NC(=O)[C@H](CCCN=C(N)N)NC(=O)[C@@H](N)CCC(N)=O)C(C)(C)S)[C@@H](C)O)C(=O)NCC(=O)NCC(=O)N[C@@H](CC(C)C)C(=O)N[C@@H](Cc2ccc(O)cc2)C(=O)N2CCC[C@H]2C(=O)N[C@@H](CS)C(=O)N[C@@H](CC(N)=O)C(=O)NCC(=O)N2CCC[C@H]2C(=O)O)cc1`
4.00

// lookup pIC50 for `CC(C)C[C@H](NC(=O)CNC(=O)CNC(=O)[C@H](Cc1ccccc1)NC(=O)[C@H](Cc1cnc[nH]1)NC(=O)CNC(=O)[C@@H](NC(=O)[C@H](CS)NC(=O)[C@@H](N)Cc1ccccc1)[C@@H](C)O)C(=O)N[C@@H](Cc1ccc(O)cc1)C(=O)N1CCC[C@H]1C(=O)N[C@@H](CS)C(=O)N[C@@H](CC(N)=O)C(=O)NCC(=O)N1CCC[C@H]1C(=O)O`
4.17

// lookup pIC50 for `CC(C)C[C@H](NC(=O)CNC(=O)CNC(=O)[C@@H](NC(=O)[C@H](Cc1cnc[nH]1)NC(=O)CNC(=O)[C@@H](NC(=O)[C@@H](NC(=O)[C@H](Cc1ccccc1)NC(=O)[C@H](CCCN=C(N)N)NC(=O)[C@@H](N)CCC(N)=O)C(C)(C)S)[C@@H](C)O)C(c1ccccc1)c1ccccc1)C(=O)N[C@@H](Cc1ccc(O)cc1)C(=O)N1CCC[C@H]1C(=O)N[C@@H](CS)C(=O)O`
4.49
